Reported EC1.5 (concentration giving 1.5-fold activation) by item:
target: UniProt:Q96EB6; experiment: Mass spectrometry based assay to identify modulators of SIRT1 activity (deacetylation of p53-based acetylated peptide substrate); assay type: biochemical
Sequence (Q96EB6 whole entry): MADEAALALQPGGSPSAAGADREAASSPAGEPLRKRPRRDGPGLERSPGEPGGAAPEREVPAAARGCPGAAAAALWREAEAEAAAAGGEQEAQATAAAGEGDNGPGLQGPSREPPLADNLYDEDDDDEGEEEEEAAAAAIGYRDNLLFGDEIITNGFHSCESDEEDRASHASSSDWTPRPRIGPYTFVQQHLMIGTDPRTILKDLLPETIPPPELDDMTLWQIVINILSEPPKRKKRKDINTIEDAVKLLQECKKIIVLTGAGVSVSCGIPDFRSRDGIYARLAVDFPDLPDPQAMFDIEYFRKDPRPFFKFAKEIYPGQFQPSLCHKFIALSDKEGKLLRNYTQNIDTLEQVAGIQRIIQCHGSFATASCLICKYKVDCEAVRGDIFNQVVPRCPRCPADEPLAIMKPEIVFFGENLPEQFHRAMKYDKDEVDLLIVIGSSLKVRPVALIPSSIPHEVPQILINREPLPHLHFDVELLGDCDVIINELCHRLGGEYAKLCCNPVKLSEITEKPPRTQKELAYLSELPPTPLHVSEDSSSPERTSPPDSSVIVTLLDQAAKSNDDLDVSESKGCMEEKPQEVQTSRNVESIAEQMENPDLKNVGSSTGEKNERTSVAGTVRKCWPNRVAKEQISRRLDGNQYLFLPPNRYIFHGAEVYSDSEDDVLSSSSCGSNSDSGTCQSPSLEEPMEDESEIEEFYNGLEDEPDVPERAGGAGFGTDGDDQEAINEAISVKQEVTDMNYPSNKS

1) Cc1cc(C)nc(NC(=O)N2CCOc3ncc(-c4cccc(C(F)(F)F)c4)nc32)c1: 1000 to 25000 nM
2) O=C(Nc1cncc(OCC(O)CO)n1)N1CCC(F)(F)c2ccc(-c3cccc(C(F)(F)F)c3)nc21 (centres unmarked): < 1000 nM
3) Cc1nc(NC(=O)N2CCCOc3ccc(-c4cccc(Cl)c4)nc32)sc1C: < 1000 nM
4) O=C(Nc1ccncc1)N1CCOc2cnc(-c3cccc(C(F)(F)F)c3)nc21: 1000 to 25000 nM
5) CN(C)c1cccc(-c2ccc3c(n2)N(C(=O)Nc2cccc(OC[C@H](O)CO)n2)CCC3)c1: < 1000 nM

# lookup: EC1.5 (concentration giving 1.5-fold activation) of `COc1nccc(NC(=O)N2CCCOc3ccc(-c4cccc(Cl)c4)nc32)n1`
1000 to 25000 nM

# lookup: EC1.5 (concentration giving 1.5-fold activation) of `CC1(C)CCN(C(=O)Nc2ccncc2)c2nc(-c3cccc(Cl)c3)ccc2C1=O`
1000 to 25000 nM

# lookup: EC1.5 (concentration giving 1.5-fold activation) of `O=C1CCCN(C(=O)Nc2ccncc2F)c2nc(-c3cccc(C(F)(F)F)c3)ccc21`
1000 to 25000 nM

# lookup: EC1.5 (concentration giving 1.5-fold activation) of `O=C(Nc1ccncc1)N1CCCCc2ccc(-c3cccc(C(F)(F)F)c3)nc21`
1000 to 25000 nM

# lookup: EC1.5 (concentration giving 1.5-fold activation) of `O=C1CCCN(C(=O)Nc2ccncc2)c2nc(-c3cccc(Cl)c3)ccc21`
1000 to 25000 nM

# lookup: EC1.5 (concentration giving 1.5-fold activation) of `O=C(Nc1ccc(F)cn1)N1CCCC(F)(F)c2ccc(-c3cccc(Cl)c3)nc21`
> 25000 nM

# lookup: EC1.5 (concentration giving 1.5-fold activation) of `CC1(C)CCN(C(=O)Nc2ccccn2)c2nc(-c3cccc(C(F)(F)F)c3)ccc21`
< 1000 nM

# lookup: EC1.5 (concentration giving 1.5-fold activation) of `Cc1cc(NC(=O)N2CCOc3c(N4CCOCC4)nc(-c4cccc(F)c4)nc32)cc(C)n1`
1000 to 25000 nM

# lookup: EC1.5 (concentration giving 1.5-fold activation) of `CCN1CCCN(C(=O)Nc2cccnc2)c2nc(-c3cccc(Cl)c3)ccc21`
1000 to 25000 nM

# lookup: EC1.5 (concentration giving 1.5-fold activation) of `Cc1cccc(NC(=O)N2CCCCc3ccc(-c4cccc(Cl)c4)nc32)n1`
> 25000 nM

# lookup: EC1.5 (concentration giving 1.5-fold activation) of `O=C(Nc1ccccn1)N1CCCCc2ccc(-c3cccc(C(F)(F)F)c3)nc21`
1000 to 25000 nM

# lookup: EC1.5 (concentration giving 1.5-fold activation) of `Cc1csc(NC(=O)N2CCc3ccc(-c4cccc(C(F)(F)F)c4)nc32)n1`
< 1000 nM

# lookup: EC1.5 (concentration giving 1.5-fold activation) of `N#Cc1cccc(-c2ccc3c(n2)N(C(=O)Nc2cccc(OC[C@H](O)CO)n2)CCC3)c1`
< 1000 nM

# lookup: EC1.5 (concentration giving 1.5-fold activation) of `O=C(Nc1cccnc1)N1CCCC(F)(F)c2ccc(-c3cccc(Cl)c3)nc21`
> 25000 nM
